- Tested on: MS2 coat protein
- ASSAY_NOTES: apparent KD of MS2 coat protein; designed switch direction (-1 OFF switch, 1 ON switch): 1; higher = weaker reporter binding
- RUN_PARAMETERS: input ligand: FMN 200 uM
EXPERIMENTAL_ENDPOINT: apparent KD of MS2 coat protein (nM)
Answers are plain numbers, in nM.

ACAUGAGACGGAGGAUAUCUUGUACCUACAUGUGACAUGAGGAUCACCCAUGUGGUAAGUAUGAUAGAGAAGGCCGAGAUAUGU [Equivalance 57 - Jieux - Same State NG 2] (Eterna round: R96, puzzle: Same State NG 2)
16.1
UGACACACGGCAGGAUAUCGAUUCCAAAGGAAUCGAGAAGGGCCUCAUGUCGUGGAAACGUGACAUGAGGAUCACCCAUGUUGC [Omei SS(NG)1 Cv15] (Eterna round: R96, puzzle: Same State NG 1)
222

Report apparent KD of MS2 coat protein for each item below.
1. CCCUUCGGCACAUGAGGAUCACCCAUGUUUUAGUUGAAGAGGUAGGAUAUGGCUGGGAGCGGAAGCCAGAAGGACCAAGUGAGU [Lareonge] (Eterna round: R96, puzzle: Same State NG 3)
2. AGGCUCAGACGAGGAUAUGAUCAUGGCGCUUCGGCGCAUACAUGAGGAUCACCCAUGUAAAGUGAUCAGAAGGUGUCUGAGCCA [SSNG2/7-B1] (Eterna round: R96, puzzle: Same State NG 2)

### Response
1. 7.76
2. 13.9
